Tested on: Ba/F3 P210-BCR-ABL1 RUNX1wt/wt control (mouse)
Test: drug sensitivity score (DSS) (DSS score); higher = more sensitive (stronger growth inhibition); extreme values may be limits of the assay
quantity measured: drug sensitivity score

compound	target entity	quantity measured	recorded measurement
COc1ccc2[nH]cc(/C=C3\C(=O)Nc4ccc(NC(=O)CCN5CCCCC5)cc43)c2c1	Ba/F3 P210-BCR-ABL1 RUNX1wt/wt control (mouse)	drug sensitivity score	6.05
CCCCNc1ncc(C(=O)NCc2ccc(-n3ccnc3)cc2)c(NC2CCC(O)CC2)n1 (centres undefined) [UNC2881]	Ba/F3 P210-BCR-ABL1 RUNX1wt/wt control (mouse)	drug sensitivity score	0
OC[C@H]1O[C@@H](n2cnc3c2N=CNC[C@H]3O)C[C@@H]1O [Pentostatin]	Ba/F3 P210-BCR-ABL1 RUNX1wt/wt control (mouse)	drug sensitivity score	0
CC[C@]1(O)C[C@@H]2CN(CCc3c([nH]c4ccccc34)[C@@](C(=O)OC)(c3cc4c(cc3OC)N(C)[C@H]3[C@@](O)(C(=O)OC)[C@H](OC(C)=O)[C@]5(CC)C=CCN6CC[C@]43[C@@H]65)C2)C1 [Vinblastine]	Ba/F3 P210-BCR-ABL1 RUNX1wt/wt control (mouse)	drug sensitivity score	18.4

---

Collected drug sensitivity score values appear next to each entry.
System: Mye-BP RUNX1 p.R162K
Assay: drug sensitivity score (DSS) (DSS score); higher = more sensitive (stronger growth inhibition); extreme values may be limits of the assay
quantity measured: drug sensitivity score

                                   compound  recorded_measurement
0  CNC(=O)c1cc(Oc2ccc(NC(=O)Nc3ccc(Cl)c(C(F)(F)F)c3)c(F)c2)ccn1                  10.6
1  CC(C)C(=O)Nc1ccc([N+](=O)[O-])c(C(F)(F)F)c1 [Flutamide]                  1.64
2  CC1(C)NC(=O)N(c2ccc([N+](=O)[O-])c(C(F)(F)F)c2)C1=O [Nilutamide]                     0
3          CC[C@@H]1C(=O)OC[C@@H]1Cc1cncn1C                     0
4  CO[C@@H](C(=O)N1Cc2[nH]nc(NC(=O)c3ccc(N4CCN(C)CC4)cc3)c2C1)c1ccccc1                  24.3

---

System: Ba/F3 P210-BCR-ABL1 RUNX1-/mut (mouse)
Experiment: drug sensitivity score (DSS) (DSS score); higher = more sensitive (stronger growth inhibition); extreme values may be limits of the assay
Each entry gets Condition not met if its drug sensitivity score stays under 3, and Condition met if its drug sensitivity score is 3 or above.

                                    compound     discrete_label
 0  COc1cc2ncnc(Nc3ccc(F)c(Cl)c3)c2cc1NC(=O)/C=C/CN1CCCCC1 [Dacomitinib]  Condition not met
 1  C[C@]12C=CC(=O)C=C1CC[C@@H]1[C@@H]2[C@@H](O)C[C@@]2(C)[C@H]1CC[C@]2(O)C(=O)CO [Prednisolone]      Condition met
 2  COC[C@H](NC(=O)c1cnc(C)s1)C(=O)N[C@@H](COC)C(=O)N[C@@H](Cc1ccccc1)C(=O)[C@@]1(C)CO1 [Oprozomib]      Condition met
 3  C=CC(=O)N1CCC[C@@H](n2nc(-c3ccc(Oc4ccccc4)cc3)c3c(N)ncnc32)C1 [Ibrutinib]  Condition not met
 4  O=C(NCc1ccncc1)C12CC3CC(C1)CC(c1ccc(Cl)cc1)(C3)C2      Condition met
 5  Nc1cc(F)ccc1NC(=O)c1ccc(CNC(=O)/C=C/c2cccnc2)cc1 [Tucidinostat]      Condition met
 6  Cc1c(Cn2c(C)nc3c(C(=O)O)cc(N4CCOCC4)cc32)cccc1C(F)(F)F  Condition not met
 7  CC(O)(CS(=O)(=O)c1ccc(F)cc1)C(=O)Nc1ccc(C#N)c(C(F)(F)F)c1 (centres undefined) [Bicalutamide]  Condition not met
 8  CC[C@H](C)C(=O)O[C@H]1C[C@@H](C)C=C2C=C[C@H](C)[C@H](CC[C@@H]3C[C@@H](O)CC(=O)O3)[C@H]21 [Lovastatin]  Condition not met
 9  C=CC(=O)Nc1cc2c(Nc3ccc(F)c(Cl)c3)ncnc2cc1OCCCN1CCOCC1 [Canertinib]      Condition met
10  O=c1sn(-c2cccc3ccccc23)c(=O)n1Cc1ccccc1 [Tideglusib]  Condition not met
11  CC1(C)CNc2cc(NC(=O)c3cccnc3NCc3ccncc3)ccc21 [Motesanib]  Condition not met
12  CN1CC[C@@H](NC(=O)Nc2ccc(C#N)cc2)C[C@@H]1c1nc2ccccc2[nH]1 [Glasdegib]  Condition not met
13  Cc1c(C(=O)Nc2ccc(N3C[C@@H](C)O[C@@H](C)C3)nc2)cccc1-c1ccc(OC(F)(F)F)cc1 [Sonidegib]  Condition not met
14  Cc1cc(OCc2nnc(SC3CCCC3)n2-c2cccnc2)ccc1-c1ccc(S(C)(=O)=O)cc1 [NMS-873]      Condition met
15  N#Cc1ccc2[nH]c(O)c(-c3ccc(CN4CCOCC4)cn3)c2c1 [AZD-1080]  Condition not met
16  Cc1ccc(C(=O)Nc2cccc(C(F)(F)F)c2)cc1Nc1nc(-c2cccnc2)nc2c1cnn2C [NVP-BHG712]      Condition met
17  Cc1nc(Nc2ncc(C(=O)Nc3c(C)cccc3Cl)s2)cc(N2CCN(CCO)CC2)n1 [Dasatinib]      Condition met
18  CNC(=O)[C@@H](NC(=O)[C@H](CC(C)C)[C@H](O)C(=O)NO)C(C)(C)C [Marimastat]  Condition not met
19  CCn1c(-c2nonc2N)nc2cnc(Oc3cccc(NC(=O)c4ccc(OCCN5CCOCC5)cc4)c3)cc21      Condition met
20  COc1cc2nccc(Oc3ccc(NC(=O)C4(C(=O)Nc5ccc(F)cc5)CC4)cc3)c2cc1OC [Cabozantinib]  Condition not met
21  C[C@H]1C[C@@H](n2c(Nc3ccc(OC(F)(F)F)cc3)nc3cc(CCC(=O)O)ccc32)CC(C)(C)C1  Condition not met
22  C[C@H](Nc1ncnc2nc[nH]c12)c1cc2cccc(Cl)c2c(=O)n1-c1ccccc1 [Duvelisib]  Condition not met
23  CN1CCN(c2nc(C3=C(c4c[nH]c5ccccc45)C(=O)NC3=O)c3ccccc3n2)CC1 [Sotrastaurin]      Condition met
24  C[C@@H](C(=O)O)c1ccc(-c2ccccc2)c(F)c1 [Tarenflurbil]      Condition met
25  CCS(=O)(=O)Nc1ccc(Oc2ccc(F)cc2F)c(-c2cn(C)c(=O)c3[nH]ccc23)c1 [Mivebresib]      Condition met
26  C#Cc1cccc(Nc2ncnc3cc(OCCOC)c(OCCOC)cc23)c1 [Erlotinib]  Condition not met
27  Cc1ccc(C(=O)Nc2ccc(CN3CCN(C)CC3)c(C(F)(F)F)c2)cc1C#Cc1cnc2cccnn12 [Ponatinib]      Condition met
28    Cc1ccc(=O)n(-c2ccccc2)c1 [Pirfenidone]  Condition not met

---

Test system: Mye-BP RUNX1 p.R107C
Test: drug sensitivity score (DSS) (DSS score); higher = more sensitive (stronger growth inhibition); extreme values may be limits of the assay
quantity measured: drug sensitivity score

molecule	recorded measurement
O=c1[nH]c(=O)n([C@H]2C[C@H](O)[C@@H](CO)O2)cc1F	0
CO[C@@H]1[C@H](N(C)C(=O)c2ccccc2)C[C@H]2O[C@]1(C)n1c3ccccc3c3c4c(c5c6ccccc6n2c5c31)C(=O)NC4	2.5
Clc1ccc(C(c2ccccc2Cl)C(Cl)Cl)cc1 (stereo not given)	0
Cc1ccc(NC(=O)c2ccc(CN3CCN(C)CC3)cc2)cc1Nc1nccc(-c2cccnc2)n1	7.7
O=C(CCCCCCC(=O)Nc1ccccc1)NO	12.4
CS(=O)(=O)N1CCN(Cc2cc3nc(-c4cccc5[nH]ncc45)nc(N4CCOCC4)c3s2)CC1	15.5
O=C1c2c(O)ccc(O)c2C(=O)c2c(NCCNCCO)ccc(NCCNCCO)c21	9.8
CN(Cc1cnc2nc(N)nc(N)c2n1)c1ccc(C(=O)N[C@@H](CCC(=O)O)C(=O)O)cc1 [Methotrexate]	0
O=C(Nc1ccncc1)C(=O)c1cn(Cc2ccc(Cl)cc2)c2ccccc12	0
C=CC(=O)Nc1cc2c(Nc3ccc(F)c(Cl)c3)ncnc2cc1OCCCN1CCOCC1	11.6
CNC(=O)c1ccccc1Sc1ccc2c(/C=C/c3ccccn3)n[nH]c2c1	13.1
COc1cc([C@@H]2c3cc4c(cc3[C@@H](O[C@@H]3O[C@@H]5CO[C@@H](c6cccs6)O[C@H]5[C@H](O)[C@H]3O)[C@H]3COC(=O)[C@H]23)OCO4)cc(OC)c1O [Teniposide]	16.8
C[C@@H]1CCN(C(=O)CC#N)C[C@@H]1N(C)c1ncnc2[nH]ccc12	0
COc1ccc(S(=O)(=O)Nc2cccnc2Nc2ccc(O)cc2)cc1	5.6
CN1CC[C@H](c2c(O)cc(O)c3c(=O)cc(-c4ccccc4Cl)oc23)[C@H](O)C1	23.1

FYI, the data here is from the supplement of paper PMC8024199.
